# measured-target: human JAK3 kinase domain (Homo sapiens)
# Sequence (P52333 796-1124): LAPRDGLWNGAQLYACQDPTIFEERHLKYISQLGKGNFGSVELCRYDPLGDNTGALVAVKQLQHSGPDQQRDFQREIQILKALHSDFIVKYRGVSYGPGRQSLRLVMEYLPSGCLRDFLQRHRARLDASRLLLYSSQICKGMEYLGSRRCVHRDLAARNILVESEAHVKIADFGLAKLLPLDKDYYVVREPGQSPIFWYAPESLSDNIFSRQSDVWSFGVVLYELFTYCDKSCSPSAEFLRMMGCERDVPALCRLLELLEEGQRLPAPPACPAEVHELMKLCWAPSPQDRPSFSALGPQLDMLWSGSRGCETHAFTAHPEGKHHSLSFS
measured-attribute: pIC50
Interpret pIC50 as the negative base-10 log of the concentration measured in mol/L.

NC(=O)c1cnc(Nc2cnccn2)cc1NCc1c(F)ccc(F)c1F [Example 12-50]    9.00
CN1CCC(=O)N(c2ccc(Nc3cc(NCc4c(F)cccc4F)c(C(N)=O)cn3)nc2)CC1 [Example 12-97]    9.60
NC(=O)c1cnc(Nc2ccc(N3CCOCCC3=O)cn2)cc1NCc1c(F)ccc(F)c1F [Example 12-81]    9.25

Please look at the following compound next.
q: Param readout = pIC50; param system = human JAK3 kinase domain (Homo sapiens); param query = NC(=O)c1cnc(Nc2ccc(N3C(=O)[C@H]4CC[C@@H]3C4)cn2)cc1NCc1c(F)ccc(F)c1F [Example 12-80] ; response: value
a: 9.16

====

# IC50 listing for each entry below
# measured-target: human JAK3 kinase domain (Homo sapiens)
All answers are understood in nM, so give the number only.

NC(=O)c1cnc(Nc2ccc(N3CCCCC3=O)cn2)cc1NCc1c(F)ccc(F)c1F [Example 12-54]    0.69

q: Return reported IC50; argument: N#Cc1ccc(N2CC[C@@H](Nc3cc(Nc4ccccn4)ncc3C(N)=O)[C@@H](F)C2)nc1 [Example 5-72]
a: 0.14

q: Another compound: NC(=O)c1cnc(Nc2ccc(N3CCCCCC3=O)cn2)cc1NCc1c(F)ccc(F)c1F [Example 12-79]
a: 0.79

q: Could you do the same for COCc1ccc(Nc2cc(N[C@@H]3CCN(c4ccc(C#N)cn4)C[C@@H]3F)c(C(N)=O)cn2)nc1 [Example 5-73] , please?
a: 0.24

Data credit: patent US20110230467A1
